Biological target: human TRPA1 (Homo sapiens (Human), UniProt O75762)
Sequence (O75762 whole entry): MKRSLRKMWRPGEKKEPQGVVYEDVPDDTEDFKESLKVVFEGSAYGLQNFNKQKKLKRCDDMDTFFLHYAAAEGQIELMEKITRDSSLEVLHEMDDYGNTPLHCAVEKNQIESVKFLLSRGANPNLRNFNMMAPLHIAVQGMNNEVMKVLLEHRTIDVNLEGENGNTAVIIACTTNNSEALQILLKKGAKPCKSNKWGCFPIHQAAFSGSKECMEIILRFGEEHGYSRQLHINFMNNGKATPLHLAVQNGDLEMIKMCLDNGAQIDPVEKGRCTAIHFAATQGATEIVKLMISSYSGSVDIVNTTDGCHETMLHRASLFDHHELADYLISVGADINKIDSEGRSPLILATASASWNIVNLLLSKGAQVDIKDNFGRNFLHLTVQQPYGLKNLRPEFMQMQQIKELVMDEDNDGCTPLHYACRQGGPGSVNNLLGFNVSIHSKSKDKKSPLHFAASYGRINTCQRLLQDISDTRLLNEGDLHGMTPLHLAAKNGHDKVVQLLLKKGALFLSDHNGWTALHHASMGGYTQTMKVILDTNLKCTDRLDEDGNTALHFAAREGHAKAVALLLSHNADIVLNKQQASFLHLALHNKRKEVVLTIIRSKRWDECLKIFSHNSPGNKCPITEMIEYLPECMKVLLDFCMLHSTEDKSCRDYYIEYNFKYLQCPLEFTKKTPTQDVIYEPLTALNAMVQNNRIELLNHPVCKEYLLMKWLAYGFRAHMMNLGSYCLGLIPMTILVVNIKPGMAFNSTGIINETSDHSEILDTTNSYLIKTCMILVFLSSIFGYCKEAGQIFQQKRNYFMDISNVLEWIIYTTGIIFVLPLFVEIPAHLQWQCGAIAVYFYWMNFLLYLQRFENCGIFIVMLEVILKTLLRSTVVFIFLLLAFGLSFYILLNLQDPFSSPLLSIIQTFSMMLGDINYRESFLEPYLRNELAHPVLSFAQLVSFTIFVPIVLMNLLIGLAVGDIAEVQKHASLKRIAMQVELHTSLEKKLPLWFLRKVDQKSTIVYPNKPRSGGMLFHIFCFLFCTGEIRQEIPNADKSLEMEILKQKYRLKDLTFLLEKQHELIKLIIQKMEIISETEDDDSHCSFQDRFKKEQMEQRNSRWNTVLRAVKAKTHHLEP
Assay: FLIPR assay of inhibitory activity on human TRPA1 (calcium ion flux fluorescence)
Assay type: cell-based
Settings: HEK293 cells stably expressing human TRPA1
Consider the following compounds; for each one, report its pIC50.
Interpret pIC50 as the negative base-10 log of the concentration measured in mol/L.

Identify measured pIC50 associated with N#Cc1ccc(NC2(C(=O)N3CCN(CC4CCCC4)CC3)CCCC2)cc1 7.27

Identify measured pIC50 associated with Cc1cccc(N2CCN(C(=O)C3Cc4cc(C#N)ccc4O3)CC2)n1 (centres unmarked) 6.55

Identify measured pIC50 associated with N#Cc1ccc(OC2(C(=O)N3CCN(c4cccc(C(F)(F)F)n4)CC3)CCC2)cc1 6.21

Identify measured pIC50 associated with N#Cc1ccc(OC2(C(=O)N3CCN(c4ccc(C(F)(F)F)nn4)CC3)CCCC2)cc1 6.33

Identify measured pIC50 associated with Cn1cc(C#N)cc1OC1(C(=O)N2CCC(C(C)(C)C)CC2)CCCC1 5.97

Identify measured pIC50 associated with N#Cc1ccc2[nH]c(C(=O)N3CCN(c4cccc(C(F)(F)F)n4)CC3)cc2c1 6.06

Identify measured pIC50 associated with CC(C)(C)C1CCN(C(=O)C2(Nc3ccc(C(F)(F)F)cc3)CCCC2)CC1 7.14

Identify measured pIC50 associated with N#Cc1ccc(NC2(C(=O)N3CCN(c4ccc(C(F)(F)F)s4)CC3)CCCC2)cc1 6.24

Identify measured pIC50 associated with N#Cc1ccc2c(c1)CC(C(=O)N1CCN(c3cccc(C(F)(F)F)n3)CC1)O2 (centres unmarked) 6.58

Identify measured pIC50 associated with N#Cc1ccc(NC2(C(=O)N3CCN(c4cccc(C(F)(F)F)c4)CC3)CCCC2)cc1 6.98

Identify measured pIC50 associated with CC(C)(C)N1CCN(C(=O)C2Cc3cc(C#N)ccc3O2)CC1 (centres unmarked) 7.17

Identify measured pIC50 associated with O=C(C1Cc2cc(Cl)ccc2O1)N1CCN(c2cccc(C(F)(F)F)n2)CC1 (centres unmarked) 6.94

Identify measured pIC50 associated with CC(C)(C)C1CCN(C(=O)C2(Oc3ccc(C#N)cc3)CCCC2)CC1 7.12

Identify measured pIC50 associated with CC(C)(C)C(Oc1ccc(C#N)cc1)C(=O)N1CCN(c2cccc(C(F)(F)F)n2)CC1 (centres unmarked) 6.74

Identify measured pIC50 associated with C#Cc1ccc(NC2(C(=O)N3CCN(c4cccc(C(F)(F)F)n4)CC3)CCCC2)cc1 6.25

Identify measured pIC50 associated with CN(C)C(=O)c1ccc(N2CCN(C(=O)C3(Nc4ccc(C#N)cc4)CCCC3)CC2)nc1 5.05

Identify measured pIC50 associated with CC(C)(C)N1CCN(C(=O)C2(Oc3ccc(C#N)cc3)CCCC2)CC1 7.29

----------
Biological target: human TRPA1 (Homo sapiens (Human), UniProt O75762)
Test: FLIPR assay of inhibitory activity on human TRPA1 (calcium ion flux fluorescence)
Assay type: cell-based
Conditions: HEK293 cells stably expressing human TRPA1
Readout Type: IC50 (nM)
Provide only the numeric value, understood in nM.

Identify measured IC50 associated with CC(C)(C)C1CCN(C(=O)C2Cc3cc(C#N)ccc3O2)CC1 (stereo not drawn) 82

Identify measured IC50 associated with N#Cc1ccc(NC2(C(=O)N3CCC(C4CCCC4)CC3)CCCC2)cc1 92

Identify measured IC50 associated with N#Cc1ccc(NC2(C(=O)N3CCC(C4CCCCC4)CC3)CCCC2)cc1 85

Source listed as patent US12391660B2.
